experiment: COS7 lysate on small-molecule microarray, probe aHis, 635 nm (AID 1123); conditions: COS7 cell lysate, fluorescence, higher = more signal;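 note: z-score combines 667nm fluorescence intensity with signal-to-noise per printed compound spot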
Readout Kind: composite z-score
Keep the answer to the number alone.

Worked examples follow.
Molecule: O=C1C2C=CC(C(O)C3CCCCC3)N(Nc3ccc([N+](=O)[O-])cc3)C2C(=O)N1c1ccccc1 (centres undefined)
composite z-score: 2.53
//
Molecule: CC(C)(C)OC(=O)CC[C@]1(C(=O)O)N=C(c2ccc(OCCCO)cc2)O[C@H]1c1ccccc1N=[N+]=[N-]
composite z-score: 2.95
//
Molecule: CC(CO)N1C(=O)[C@@H]2C3C(=O)OCCC/C=C\[C@H]3OC23C=CCN(c2ccc4ccccc4c2)C(=O)[C@@H]13 (some centres undefined)
composite z-score: -0.519

Incoming: So what does the record say about composite z-score for C=CCNC(=O)[C@H]1[C@@H]2C(=O)O[C@@H](c3ccccc3)[C@@H](c3ccccc3)N2[C@@H](c2ccc(OCCO)cc2)[C@]12C(=O)Nc1ccc(C#CC3=CCCCC3)cc12 ?
Outgoing: 0.999

Incoming: Find the recorded composite z-score belonging to COCCCN1C(=O)[C@@]2(Cc3ccccc31)c1ccccc1C(=O)N(Cc1ccccc1C(F)(F)F)[C@H]2c1ccc(CO)cc1 and report it.
Outgoing: -0.176

Incoming: Which composite z-score is reported for this molecule? CC(C)OC(=O)C=C1C[C@@H](c2ccccc2C(F)(F)F)O[C@@H](c2ccccc2C(F)(F)F)O1
Outgoing: 0.387

Incoming: I am curious: what composite z-score value has been reported for C=C(CCCC)C(=O)CC[C@@H](OC(=O)c1cccnc1)c1ccc(CO)o1 ?
Outgoing: 0.28

Incoming: Tell me the measured composite z-score of C=CCNC(=O)[C@H]1[C@@H]2C(=O)O[C@@H](c3ccccc3)[C@@H](c3ccccc3)N2[C@@H](c2ccc(O)cc2)[C@]12C(=O)N(C(=O)OCCOC)c1ccc(C#CCNC(N)=O)cc12 , please.
Outgoing: 0.275

Incoming: Quick one: composite z-score of CO[C@H]1O[C@H](CO)[C@@H](OC(=O)Nc2ccc(Br)cc2)[C@H](OC(=O)c2cc3ccccc3[nH]2)[C@H]1OC(=O)c1cc2ccccc2[nH]1 ?
Outgoing: 1.25

###

Listed here: items and their measured composite z-score.
biological target: Calmodulin-1 (Homo sapiens) (UniProt P0DP23); experiment: CALM1 binders on microarrays, EGTA buffer, profiling panel, biochemical, small-molecule microarray, Cy5-labelled CALM1 (AID 1111); details: Cy5-CALM1 binding fluorescence, higher = more signal;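 note: labelled calmodulin applied in Tris saline Tween buffer holding calcium plus EGTA and DTT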

Record Smiles: CC(C)(C)OC(=O)CC[C@@]1(C(N)=O)N=C(c2ccc(OCCCO)cc2)O[C@@H]1c1ccccc1
composite z-score: 0.31
--
Record Smiles: CN(C)C(=O)[C@@]1(Cc2ccccc2)N=C(c2ccc(OCCCO)cc2)O[C@H]1c1ccccc1N=[N+]=[N-]
composite z-score: 1.09
--
Record Smiles: COc1ccc(CCN2C(=O)[C@@]3(c4ccc([N+](=O)[O-])cc4)CC(=O)N(C4CCCCC4)[C@@H]3c3ccc(CO)cc32)cc1
composite z-score: -0.574

Could you now consider this next compound?
Incoming: Recorded composite z-score for CN(C)CCCNC(=O)[C@@]1(c2ccc([N+](=O)[O-])cc2)CC(=O)N(C2CCCCC2)[C@@H]1c1ccc(CO)cc1 , please?
Outgoing: 0.465

Cited source: PubChem BioAssay
